Test system: NHBE cells
Test: Biolog metabolic array: substrate use by NHBE cells with or without CA09 infection
Format: cell-based, human
Conditions: Control (uninfected) NHBE cells, Biolog PMM2, 5 hr
Please respond with class 1 when measured Substrate use, 590 nm absorbance normalized to zero hour, 5 hr is strictly beneath 2, and with class 0 in all other cases.

See these solved cases before continuing.
> print(dat)
                                    molecule  category.label
 1  CO[C@@H]1O[C@H](CO)[C@@H](O)[C@H](O)[C@H]1O [b-Methyl-D-Glucoside]         class 0
 2  C[C@@H](O)CC(=O)O [b-Hydroxy-Butyric Acid]         class 0
 3           COC(=O)C(C)=O [Methyl Pyruvate]         class 1
 4  O=C[C@H](O)[C@@H](O)[C@H](O)[C@H](O)COP(=O)(O)O [D-Glucose-6-Phosphate]         class 1
 5  OCc1ccccc1O[C@@H]1O[C@H](CO)[C@@H](O)[C@H](O)[C@H]1O         class 1
 6  OC[C@H]1O[C@H](OC[C@H]2O[C@H](O[C@]3(CO)O[C@H](CO)[C@@H](O)[C@@H]3O)[C@H](O)[C@@H](O)[C@@H]2O)[C@H](O)[C@@H](O)[C@H]1O         class 1
 7   O=C[C@H](O)[C@@H](O)[C@@H](O)[C@H](O)CO         class 1
 8  OC[C@H]1O[C@H](OC[C@H]2OC(O)(CO)[C@@H](O)[C@@H]2O)[C@H](O)[C@@H](O)[C@@H]1O (some centres unmarked)         class 0
 9                    OC[C@@H](O)[C@@H](O)CO         class 0
10             CC(O)C(C)O (centres unmarked)         class 1

Query :: Strictly below 2 in Substrate use, 590 nm absorbance normalized to zero hour, 5 hr? COC(=O)[C@@H](C)O [Methyl D-Lactate]
Result :: class 0

Query :: In plain terms, does O=C(CO)[C@@H](O[C@H]1O[C@H](CO)[C@@H](O)[C@H](O)[C@H]1O)[C@H](O)[C@H](O)CO come in under 2 for Substrate use, 590 nm absorbance normalized to zero hour, 5 hr?
Result :: class 1

Query :: In the record for CO[C@@H]1O[C@H](CO)[C@H](O)[C@H](O)[C@H]1O [b-Methyl-D-Galactoside] , is Substrate use, 590 nm absorbance normalized to zero hour, 5 hr less than 2?
Result :: class 1

Query :: Criterion: Substrate use, 590 nm absorbance normalized to zero hour, 5 hr strictly below 2. Is it met by CC(=O)C(=O)O ?
Result :: class 1

Query :: Field: below-cutoff. Rule: recorded Substrate use, 590 nm absorbance normalized to zero hour, 5 hr strictly less than 2. Subject: N[C@@H](C(=O)O)[C@@H](O)[C@H](O)[C@H](O)CO
Result :: class 1

Query :: Check if Substrate use, 590 nm absorbance normalized to zero hour, 5 hr falls below 2 for NCCO .
Result :: class 1

Query :: Threshold test, Substrate use, 590 nm absorbance normalized to zero hour, 5 hr < 2: C[C@@H](O)[C@H](O)[C@H](O)[C@@H](O)C=O
Result :: class 0

Query :: Given the entry O=C(CO)[C@@H](O)[C@H](O)[C@H](O)COP(=O)(O)O [D-Fructose-6-Phosphate] , would its reported Substrate use, 590 nm absorbance normalized to zero hour, 5 hr be below 2?
Result :: class 1

Query :: In plain terms, does OC[C@H]1O[C@@H](O[C@H]2[C@H](O)[C@@H](O)[C@@H](O)O[C@@H]2CO)[C@H](O)[C@@H](O)[C@H]1O come in under 2 for Substrate use, 590 nm absorbance normalized to zero hour, 5 hr?
Result :: class 1

Query :: Determine if OC[C@@H](O)[C@H](O)[C@@H](O)CO shows Substrate use, 590 nm absorbance normalized to zero hour, 5 hr strictly lower than 2.
Result :: class 1
